Data provenance: patent US10961215B2

Target: GST tagged LXRalpha LBD (ligand binding domain) (Homo sapiens, UniProt Q13133)
Construct: purchased Invitrogen pv4655
Sequence (Q13133 209-447 limits assumed): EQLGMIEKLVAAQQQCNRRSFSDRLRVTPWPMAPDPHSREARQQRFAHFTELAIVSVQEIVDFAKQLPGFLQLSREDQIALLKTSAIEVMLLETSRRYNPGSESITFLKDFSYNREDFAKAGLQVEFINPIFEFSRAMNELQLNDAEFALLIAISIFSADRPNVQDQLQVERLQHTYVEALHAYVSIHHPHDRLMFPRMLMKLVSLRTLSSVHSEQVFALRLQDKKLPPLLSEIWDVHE
Test: LanthaScreen TR-FRET Liver X Receptor Coactivator Assay, LXR alpha-LBD (co-activator recruitment; IP and % Emax relative to T0901317)
Format: biochemical
Details: Inflection Point of co-activator recruitment, LXR alpha-LBD, TR-FRET
Value type: LXR alpha IP (nM)

smiles_entry=CN(C)C(=O)c1ccc(N2CCC([C@H]3C[C@@H](N(C)C(=O)[C@](O)(c4cccc(OC5CC5)c4)C(F)(F)F)C3)CC2)nc1Cl endpoint_result="No IP"
smiles_entry=COc1cccc([C@@](O)(C(=O)N(C)CCCC2CCN(c3ccc(C(=O)N4CC(N)C4)c(Cl)n3)CC2)C(F)(F)F)c1 endpoint_result="No IP"
smiles_entry=CNC(=O)c1ccc(N2CCC3(CC2)CC(CN(C)C(=O)[C@](O)(c2cccc(OC)c2)C(F)(F)F)C3)nc1Cl endpoint_result="No IP"
